Biological target: ERK2 (Homo sapiens, UniProt P28482)
Sequence (P28482 whole entry): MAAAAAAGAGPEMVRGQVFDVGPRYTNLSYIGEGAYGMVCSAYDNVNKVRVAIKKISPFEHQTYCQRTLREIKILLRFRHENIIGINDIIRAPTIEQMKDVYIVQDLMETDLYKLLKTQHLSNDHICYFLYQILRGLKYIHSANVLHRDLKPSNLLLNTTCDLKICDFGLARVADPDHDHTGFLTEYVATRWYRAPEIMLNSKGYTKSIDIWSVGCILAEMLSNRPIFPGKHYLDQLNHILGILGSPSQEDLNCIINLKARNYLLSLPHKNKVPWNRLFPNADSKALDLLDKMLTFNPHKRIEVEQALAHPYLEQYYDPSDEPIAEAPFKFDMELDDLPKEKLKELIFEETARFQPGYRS
observed-property: pIC50
Lab note: report pIC50 as minus log10 of the concentration in molar units, number only.

pIC50 on ERK2 (Homo sapiens, UniProt P28482) for Cn1nccc1Nc1nccc(-c2cc3c(s2)C(C)(C)N(CCN2CCOCC2)C3=O)n1 [Example 1] is 8.28
